Assay system: T1, huCD33-G69-Fc recombinant protein (human, UniProt P20138 18-259);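 note: scFvs from periplasmic extracts captured on biosensors via anti-V5 antibody, exposed to recombinant huCD33 variants for 2 min, 5 min dissociation, scored as binding, no binding or ambiguous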
T1 construct: extracellular domain; also called CD33 R69G
T1 sequence (P20138 18-259 R69G): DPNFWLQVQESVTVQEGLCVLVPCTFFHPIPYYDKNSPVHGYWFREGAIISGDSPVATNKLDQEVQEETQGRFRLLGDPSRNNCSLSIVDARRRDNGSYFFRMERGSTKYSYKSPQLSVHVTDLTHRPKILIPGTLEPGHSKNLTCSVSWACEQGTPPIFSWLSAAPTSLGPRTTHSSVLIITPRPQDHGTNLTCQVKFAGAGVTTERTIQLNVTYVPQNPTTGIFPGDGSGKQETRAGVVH
Assay text: BLI

Binder	binding result
Polypeptide No. 42 (scFv, V domains shown, scFv) VH: QVQLVQSGAEVKKPGASVKVSCKASGYTFTDYFMHWVRQAPGQGLEWMGWINPNSGNTGYAQKFQGRVTMTRDTSTSTVYMELSSLRSEDTAVYYCARLNDYGDYGGPATLDYWGQGTLVTVSS VL: DIQMTQSPSSLSASVGDRVTITCRASQGISNNLNWYQQKPGKAPKLLIYAASSLQSGVPSRFSGSGSGTDFTLTISSLQPEDFATYYCQQSYSTPPTFGQGTKLEIKR	binds
Polypeptide No. 29 (scFv, V domains shown, scFv) VH: QVQLVQSGAEVKKPGASVKVSCKASGYTFTGYYLHWVRQAPGQGLEWMGVINVRRGSTRYAQNFQGRVTMTRDTSTSTVYMELSSLRSEDTAVYYCARVSGSYYQPWGQGTLVTVSS VL: DIQMTQSPSSLSASVGDRVTITCRASQSISRWLAWYQQKPGKAPKLLIYDASNLETGVPSRFSGSGSGTDFTLTISSLQPEDFATYYCQQGNSFPPIFGGGTKVEIKR	binds
Polypeptide No. 31 (scFv, V domains shown, scFv) VH: QVQLVQSGAEVKKPGSSVKVSCKASGGTFSTYAITWVRQAPGQGLEWMGGIIPIVGRANYAQKFQGRVTITADESTSTAYMELSSLRSEDTAVYYCARSGGHDLDYWGQGTLVTVSS VL: DIQMTQSPSSLSASVGDRVTITCRASQGIGNDLGWYQQKPGKAPKLLIYGASSVQSGVPSRFSGSGSGTDFTLTISSLQPEDFATYYCQQSYSTPITFGQGTRLEIKR	binds
Polypeptide No. 7 (scFv, V domains shown, scFv) VH: QVQLVQSGAEVKKPGASVKVSCKASGYTFTDYYMHWVRQAPGQGLEWMGWINPNSGGTNYAQKFQGRVTMTRDTSTSTVYMELSSLRSEDTAVYYCARDSRIAVAASSFDYWGQGTLVTVSS VL: DIQMTQSPSSLSASVGDRVTITCRASRGINNWLTWYQQKPGKAPKLLIYGASSLQSGVPSRFSGSGSGTDFTLTISSLQPEDFATYYCQQSYRIPYTFGQGTKLEIKR	no binding
Polypeptide No. 6 (scFv, V domains shown, scFv) VH: QVQLVQSGAEVKKPGASVKVSCKASGYTFTAYYTHWVRQAPGQGLEWMGWMNPNSGHTSYAQKFQGRVTMTRDTSTSTVYMELSSLRSEDTAVYYCAREAYDSFDYWGQGTLVTVSS VL: DIQMTQSPSSLSASVGDRVTITCRASQSISSYLNWYQQKPGKAPKLLIYEASTLETGVPSRFSGSGSGTDFTLTISSLQPEDFATYYCQQANSFPFTFGPGTKVDIKR	no binding
Polypeptide No. 22 (scFv, V domains shown, scFv) VH: QVQLVQSGAEVKKPGASVKVSCKASGYTFTDYYIHWVRQAPGQGLEWMGWINPNSGGTNYAQEFQGRVTMTRDTSTSTVYMELSSLRSEDTAVYYCARDHRIAVAGSYFDYWGQGTLVTVSS VL: DIQMTQSPSSLSASVGDRVTITCRASRSIRTWLAWYQQKPGKAPKLLIYAASSLQTGVPSRFSGSGSGTDFTLTISSLQPEDFATYYCQQSYSTPYTFGQGTKLEIKR	no binding
Polypeptide No. 13 (scFv, V domains shown, scFv) VH: QVQLVQSGAEVKKPGASVKVSCKASGYSFTGYYMHWVRQAPGQGLEWMGWINPNSGGTYFAQNFQGRVTMTRDTSTSTVYMELSSLRSEDTAVYYCVKDRGDRVVTSYLDYWGQGTLVTVSS VL: DIQMTQSPSSLSASVGDRVTITCRASQGIRNWLAWYQQKPGKAPKLLIYAASSLQSGVPSRFSGSGSGTDFTLTISSLQPEDFATYYCQQSYRTPYTFGQGTKLEIKR	no binding
